Experiment: Stability tests of Al18F-complexes in PBS (0.1 M, pH 7) at 37° C., Example 26
Assay type: physicochemical
Details: PBS 0.1 M pH 7, 37° C., 240 min
PROPERTY LABEL: RCP (%)
The reply should be a number in %, with the unit left off.

input: // RCP lookup, key: O=C1CN(Cc2ccccc2)CCN2CC(=O)[O][Al-]([18F])([O]1)[O]c1ccc(F)cc1C2 (stereo not shown) [Al^18F-L4]
output: 74

input: // RCP lookup, key: O=C1CN(Cc2ccccc2)CCN2CC(=O)[O][Al-]([18F])([O]1)[O]c1ccccc1C2 (stereo not shown) [Al^18F-L3]
output: 70

input: // RCP lookup, key: O=C1CN2CCN(CCN(Cc3ccccc3)CC2)CC(=O)[O][Al]([18F])[O]1 [Al^18F-NODA-benzyl, reference compound]
output: 88

input: // RCP lookup, key: O=C1CN(Cc2ccccc2)CCN2CC(=O)[O][Al-]([18F])([O]1)[O]c1ccc([N+](=O)[O-])cc1C2 (stereo not shown) [Al^18F-L5]
output: 65

* * *

Test: Stability tests of Al18F-complexes in rat serum at 37° C., Example 26
Assay type: in vitro ADME
Conditions: 240 min
I'd be grateful if you could share measured RCP for these entries.
The reply should be a number in %, with the unit left off.

input: // RCP lookup, key: O=C1CN2CCN(CCN(Cc3ccccc3)CC2)CC(=O)[O][Al]([18F])[O]1 [Al^18F-NODA-benzyl, reference compound]
output: 87

input: // RCP lookup, key: O=C1CN(Cc2ccccc2)CCN2CC(=O)[O][Al-]([18F])([O]1)[O]c1ccc(F)cc1C2 (stereo not shown) [Al^18F-L4]
output: 41

input: // RCP lookup, key: O=C1CN(Cc2ccccc2)CCN2CC(=O)[O][Al-]([18F])([O]1)[O]c1ccc([N+](=O)[O-])cc1C2 (stereo not shown) [Al^18F-L5]
output: 39

input: // RCP lookup, key: O=C1CN(Cc2ccccc2)CCN2CC(=O)[O][Al-]([18F])([O]1)[O]c1ccccc1C2 (stereo not shown) [Al^18F-L3]
output: 66

* * *

Test: Stability tests of Al18F-complexes in PBS (0.1 M, pH 7) at 37° C., Example 26
Assay type: physicochemical
Details: PBS 0.1 M pH 7, 37° C., 120 min
I'd be grateful if you could share measured RCP for these entries.
The reply should be a number in %, with the unit left off.

input: // RCP lookup, key: O=C1CN(Cc2ccccc2)CCN2CC(=O)[O][Al-]([18F])([O]1)[O]c1ccc(F)cc1C2 (centres unmarked) [Al^18F-L4]
output: 85

input: // RCP lookup, key: O=C1CN(Cc2ccccc2O)CCN2CC(=O)[O][Al-]([18F])([O]1)[O]c1ccccc1C2 (centres unmarked) [Al^18F-L2]
output: 31

input: // RCP lookup, key: O=C1CN2CCN(CCN(Cc3ccccc3)CC2)CC(=O)[O][Al]([18F])[O]1 [Al^18F-NODA-benzyl, reference compound]
output: 98

input: // RCP lookup, key: O=C1CN(Cc2ccccc2)CCN2CC(=O)[O][Al-]([18F])([O]1)[O]c1ccccc1C2 (centres unmarked) [Al^18F-L3]
output: 80

input: // RCP lookup, key: O=C1CN(Cc2ccccc2)CCN2CC(=O)[O][Al-]([18F])([O]1)[O]c1ccc([N+](=O)[O-])cc1C2 (centres unmarked) [Al^18F-L5]
output: 78
